experimental_system: Cytochrome P450 3A4 (Homo sapiens, UniProt P08684)
Sequence (P08684 whole entry): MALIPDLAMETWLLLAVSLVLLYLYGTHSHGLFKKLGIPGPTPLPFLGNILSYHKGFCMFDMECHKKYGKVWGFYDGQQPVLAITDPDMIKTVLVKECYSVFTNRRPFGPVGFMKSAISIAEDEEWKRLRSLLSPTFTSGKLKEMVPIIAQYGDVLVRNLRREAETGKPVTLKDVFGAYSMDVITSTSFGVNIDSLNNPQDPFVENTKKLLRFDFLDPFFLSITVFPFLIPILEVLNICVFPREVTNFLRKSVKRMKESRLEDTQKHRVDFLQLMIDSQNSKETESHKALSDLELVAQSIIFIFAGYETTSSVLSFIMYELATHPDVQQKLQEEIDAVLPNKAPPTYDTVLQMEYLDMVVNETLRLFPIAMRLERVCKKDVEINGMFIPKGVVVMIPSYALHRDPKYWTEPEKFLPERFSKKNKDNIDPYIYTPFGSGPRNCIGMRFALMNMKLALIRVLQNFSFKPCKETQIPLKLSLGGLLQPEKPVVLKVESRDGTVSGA
protocol: Inhibition of CYP3A4
parameter: IC50 (µM)
Write the answer as a number in µM, unit excluded.

Entry under review: `O=C(C1CCC(F)(F)CC1)N1CC(c2nc(-c3cccc(Cl)c3)no2)C1` . Reported IC50?
25

Entry under review: CC1CCCCC1C(=O)N1CC(c2nc(-c3cccc(F)c3)no2)C1 (configuration not stated) . Reported IC50?
25
